- Tested System: Schistosoma mansoni thioredoxin glutathione reductase (TGR) (UniProt Q962Y6)
- Protocol Summary: qHTS Assay for the Inhibitors of Schistosoma Mansoni Peroxiredoxins; further: nearly all actives have a fitted effect of over 60% in size; further: potency means the concentration at half of the fitted maximal effect
- Assay Conditions: purified TGR, DTNB reduction, TNB absorbance 405 nm; series mostly up to 114 µM
Out of some 360,000 compounds screened, about 11,000 (3.1%) were called active. Inconclusive results (about 4%) are left out. Many of the other results were omitted from the sample, so actives are more common in it than they were.
Readout Name: Potency

Here's what some known entries look like.
[
  {
    "Molecule": "Cc1ccc(C2CC(c3cccc(C)c3)n3nc(N)nc3N2)cc1 (stereo unspecified)",
    "Potency": "inactive"
  },
  {
    "Molecule": "COc1ccc2c(Sc3ccc(C)cc3)c(C(=O)NC(C)c3ccccc3)[nH]c2c1 (stereo unspecified)",
    "Potency": "inactive"
  },
  {
    "Molecule": "Cc1ccc(C(=O)OC2=CC(=O)CC(C)(C)C2)cc1",
    "Potency": "44.7 µM (active)"
  },
  {
    "Molecule": "COc1ccc(C2NC(=O)c3ccccc3N2)cc1 (stereo unspecified)",
    "Potency": "inactive"
  },
  {
    "Molecule": "Cc1n[nH]c(=O)c2c(NC(=O)CSc3ccccc3F)oc(C)c12",
    "Potency": "inactive"
  }
]

Request the reported Potency associated with Cc1ccc(C)c(CNC(=O)c2cc3ccccn3n2)c1
inactive

Moving on to CCCCC1=CC2=CC(=O)C(C)(OC(=O)CC)C(=O)C2=CN1CCCOC(C)C (stereo unspecified)
inactive
